- measuredOn: T1, human C5aR (CD88) (human, UniProt P21730 1-350)
- T1 sequence (looked up): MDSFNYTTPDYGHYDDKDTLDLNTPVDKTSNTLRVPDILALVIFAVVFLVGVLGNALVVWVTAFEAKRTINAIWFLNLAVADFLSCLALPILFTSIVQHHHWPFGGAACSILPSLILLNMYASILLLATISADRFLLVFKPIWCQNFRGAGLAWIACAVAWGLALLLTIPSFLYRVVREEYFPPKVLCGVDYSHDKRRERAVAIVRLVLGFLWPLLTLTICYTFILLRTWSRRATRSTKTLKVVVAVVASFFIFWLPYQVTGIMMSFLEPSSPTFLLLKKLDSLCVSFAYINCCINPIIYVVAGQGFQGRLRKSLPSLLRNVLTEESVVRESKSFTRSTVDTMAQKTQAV
- assayComment: cell-based or functional assay
Non-standard residues stand in square brackets, D forms with d. No end group written: not given here. Phe(4-Me) = Cc1ccc(C[C@H](N)C(=O)O)cc1; Cha = N[C@@H](CC1CCCCC1)C(=O)O; dCha = N[C@H](CC1CCCCC1)C(=O)O; dChg = N[C@@H](C(=O)O)C1CCCCC1; AllylGly = C=CC[C@H](N)C(=O)O; Orn = NCCC[C@H](N)C(=O)O
Reported IC50 activity group, enzyme release assay is given for each of the following binders.

- binder: "Ac-F[Orn]P[dCha]W[Cha]-NH2 [Ac-Phe-Orn-Pro-cha-Trp-Cha-NH2]"
  experimentalValue: "≤ 200 nM"
- binder: "Ac-F[Orn]P[dCha]W[AllylGly] (lactam (positions not given here); not fully specified (bridges); printed as Ac-Phe-[Orn-Pro-cha-Trp-Eaf]) [Ac-Phe-[Orn-Pro-cha-Trp-Eaf]]"
  experimentalValue: "≤ 10 nM"
- binder: "Ac-F[Orn]P[dHch]WF-OH [Ac-Phe-Orn-Pro-hch-Trp-Phe-OH]"
  experimentalValue: "≤ 200 nM"
- binder: "Ac-F[Orn]P[dCha]W[Phe(4-Me)] (lactam (positions not given here); not fully specified (bridges); printed as Ac-Phe-[Orn-Pro-cha-Trp-Pmf]) [Ac-Phe-[Orn-Pro-cha-Trp-Pmf]]"
  experimentalValue: "≤ 50 nM"

Alright, here's another binder for you.
Req: Read the entry Ac-F[Orn]P[dChg]WF-OH [Ac-Phe-Orn-Pro-chg-Trp-Phe-OH] and write its reported IC50 activity group, enzyme release assay.
Resp: ≤ 2000 nM
